Molecular target: Dual specificity protein kinase CLK1 (Homo sapiens)
Sequence (P49759 whole entry): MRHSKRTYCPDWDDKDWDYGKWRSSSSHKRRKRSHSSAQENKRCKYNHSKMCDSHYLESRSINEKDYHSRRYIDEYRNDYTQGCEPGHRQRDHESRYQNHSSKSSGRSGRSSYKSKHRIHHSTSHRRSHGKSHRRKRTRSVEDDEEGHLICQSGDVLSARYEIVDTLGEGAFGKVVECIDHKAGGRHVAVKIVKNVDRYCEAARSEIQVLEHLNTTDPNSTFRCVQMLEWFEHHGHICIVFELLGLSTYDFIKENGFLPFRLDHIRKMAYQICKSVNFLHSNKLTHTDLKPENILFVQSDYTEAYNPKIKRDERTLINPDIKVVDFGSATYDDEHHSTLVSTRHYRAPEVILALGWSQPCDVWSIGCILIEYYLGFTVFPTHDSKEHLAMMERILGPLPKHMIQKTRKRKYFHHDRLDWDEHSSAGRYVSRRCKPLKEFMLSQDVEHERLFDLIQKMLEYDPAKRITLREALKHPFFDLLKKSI
Assay: Inhibition of human recombinant CLK1 (130 to end residues) using ERMRPRKRQGSVR as substrate incubated for 40 mins in presence of [gamma-33ATP] by radiometric scintillation counting analysis
pIC50: −log10 of the molar value.
readout: pIC50

>>> meas_value("CC(C)n1cc(C(=O)Nc2ccc(Oc3ccnc(NC(=O)C4CC4)c3)c(F)c2)c(=O)n(-c2ccc(F)cc2)c1=O")
"< 6.00"

====

Assay: Half life in ICR mouse at 1 mg/kg, iv measured upto 24 hrs by LC-MS analysis
Format: ADME, organism-based
Settings: in vivo
readout: half-life (h)

>>> meas_value("CC(C)n1cc(C(=O)Nc2ccc(Oc3ccnc(NC(=O)C4CC4)c3)c(F)c2)c(=O)n(-c2ccc(F)cc2)c1=O")
5.57

Source of measurements: ChEMBL document CHEMBL4823249
